Below is a list of entries, each paired with its recorded inhibition score value.
Assay: yeast proliferation inhibition, dose response, BY4741, OD595, 24 h (AID 489042)
Conditions: S. cerevisiae BY4741 growth, hits give high values

compound	inhibition score
Oc1cccc2nc3ccccc3nc12	21
O=c1[nH]c(O)c(C=Nc2ccc(F)c(Cl)c2)c(=O)[nH]1	0
C[C@]12CCC3C(CC[C@H]4C[C@H](O)CC[C@]34C)C1C[C@@H](CCCCl)[C@@H]2O (some centres undefined)	10
C=C1C(O)[C@@H]2O[C@]3(CC[C@H](/C=C/C(C)[C@@H]4CC(C)=CC5(O[C@H](C[C@@](C)(O)C(=O)O)CCC5O)O4)O3)CC[C@H]2O[C@@H]1C(O)CC(C)[C@H]1OC2(CCCCO2)CCC1C (some centres undefined)	21
CC(=O)O[C@H]1CCC2C3CC[C@H]4[C@@H](O)[C@H](O)CC[C@]4(C)C3CC[C@@]21C (some centres undefined)	0
OCC[n+]1c2ccccc2nc2ccc(N3CCOCC3)cc21	0
C[C@]12CCC3C(CC[C@H]4C[C@@H](O)CC[C@]34C)[C@H]1CC[C@H]2O (some centres undefined)	0
CNc1ccc2nc3ccccc3[n+](C)c2c1	0
C[n+]1c2ccccc2nc2ccc(NCCO)cc21	0

From: PubChem BioAssay AID489042
